assay: Pharmacokinetic evaluation in beagles; type: in vivo; settings: both (Example 16), male (MYK-461), beagle, dog, plasma, po, intragastric administration, 2 mg/kg, read-out: Residence time MRT
measurement-type: MRT

* CC(C)n1c(=O)cc(N[C@@H](C)c2ccccc2)[nH]c1=O [MYK-461, reference compound] | 59.2 h

// below: MRT requested for another molecule
The molecule listed as Cc1ccc(F)c([C@H](C)Nc2nc(=O)n(C3CCOCC3)c(=O)[nH]2)c1 has a reported MRT of 9.5 h

* * *

test: Toxicokinetic evaluation of 14-day repeated intragastric administration to SD rats; format: in vivo; details: both sexes, SD, rat, plasma, po, 15 mg/kg, repeated intragastric 15 mg/kg, Day 7, read-out: Apparent volume of distribution Vz/F
measurement-type: Vd/F (L/kg)
Only the number, expressed in L/kg, is required.

The compound listed as Cc1ccc(F)c([C@H](C)Nc2nc(=O)n(C3CCOCC3)c(=O)[nH]2)c1 has a reported Vd/F of 2.13

* * *

assay: Toxicokinetic evaluation of 14-day repeated intragastric administration to SD rats; assay type: in vivo; conditions: both sexes, SD, rat, plasma, po, 15 mg/kg, repeated intragastric 15 mg/kg, Day 7, read-out: Half-life T1/2 (converted)
measurement-type: half-life (h)
Express your answer in h, writing the number without its unit.

Value of half-life reported for the compound Cc1ccc(F)c([C@H](C)Nc2nc(=O)n(C3CCOCC3)c(=O)[nH]2)c1 is 6.5

* * *

assay: Toxicokinetic evaluation of 14-day repeated intragastric administration to SD rats; assay type: in vivo; settings: both sexes, SD, rat, plasma, po, 30 mg/kg, repeated intragastric 30 mg/kg, Day 14, read-out: Half-life T1/2 (converted)
measurement-type: half-life (h)
The reply should contain only the number, in h.

Measured half-life of Cc1ccc(F)c([C@H](C)Nc2nc(=O)n(C3CCOCC3)c(=O)[nH]2)c1 [Example 16] : 5.6

* * *

test: Toxicokinetic evaluation of 14-day repeated intragastric administration to SD rats; format: in vivo; settings: both sexes, SD, rat, plasma, po, 15 mg/kg, repeated intragastric 15 mg/kg, Day 14, read-out: Apparent volume of distribution Vz/F
measurement-type: Vd/F (L/kg)
Your answer should be a plain number; it is taken to be in L/kg.

The molecule Cc1ccc(F)c([C@H](C)Nc2nc(=O)n(C3CCOCC3)c(=O)[nH]2)c1 showed Vd/F equal to 1.45

* * *

experiment: Pharmacokinetic evaluation in cynomolgus monkeys; type: in vivo; settings: both (Example 16), male (MYK-461), cynomolgus monkey, plasma, po, intragastric administration, 2 mg/kg, read-out: Clearance CL/F
measurement-type: CL/F (mL/min/kg)
Note: unit mL/min/kg is implicit; provide only the numeric part.

• Cc1ccc(F)c([C@H](C)Nc2nc(=O)n(C3CCOCC3)c(=O)[nH]2)c1 [Example 16] = 11.8

From here, focus on the item given below.
CL/F reading for CC(C)n1c(=O)cc(N[C@@H](C)c2ccccc2)[nH]c1=O [MYK-461, reference compound] : 2.34

* * *

experiment: Toxicokinetic evaluation of 14-day repeated intragastric administration to SD rats; format: in vivo; details: both sexes, SD, rat, plasma, po, 5 mg/kg, repeated intragastric 5 mg/kg, Day 14, read-out: Residence time MRT
measurement-type: MRT at 14 day (h)
State the answer as a number, implicitly in h.

Item: Cc1ccc(F)c([C@H](C)Nc2nc(=O)n(C3CCOCC3)c(=O)[nH]2)c1 | MRT at 14 day: 6.2
